# Assay: Cytotoxicity against human WiDr cells by MTT assay
# Assay type: cell-based
# Particulars: read-out: ED50 (the source's name)
Observation type: CC50

See these solved cases before continuing.
>>> recorded_value("C=C1CCCC(C)(C)[C@@H]1CC[C@](C)(O)[C@@H]1CCC2[C@@](C)(CC[C@H]3C(C)(C)CCC[C@]23C)O1 (stereo partly specified)")
"> 10 µg/mL"
>>> recorded_value("COc1cccc2c1C(=O)c1c(O)c3c(c(O)c1C2=O)C[C@@](O)(C(=O)CO)C[C@@H]3O[C@H]1C[C@H](N)[C@H](O)[C@H](C)O1")
"0.12 µg/mL"
>>> recorded_value("C=C1CCCC(C)(C)[C@@H]1C[C@H](OC(=O)c1ccccc1)/C(C)=C/CC[C@@H]1[C@@]2(C)CCCC(C)(C)[C@@H]2CC[C@@]1(C)O")
"> 10 µg/mL"
>>> recorded_value("C=C1CCCC(C)(C)[C@@H]1CCC(C)=O")
"> 10 µg/mL"
>>> recorded_value("C=C1CCCC(C)(C)[C@@H]1C[C@@H]1O[C@]2(C)CC[C@H]3C(C)(C)CCC[C@]3(C)[C@H]2CC/C=C\\1C")
"> 10 µg/mL"

For the next question, use this compound.
Field CC50 (entry C=C1CCCC(C)(C)[C@@H]1C[C@H](O)/C(C)=C/CC[C@@H]1[C@@]2(C)CCCC(C)(C)[C@@H]2CC[C@@]1(C)O ) reads 7.8 µg/mL
